Assay: Metabolic stability in mouse liver microsomes assessed as residual rate
Type: ADME, Microsome
REPORTED METRIC: Stability
Answer with the number, then the unit.

Some compounds with recorded Stability:
{"COMPOUND STRING": "CC[C@H]1OC(=O)[C@@](C)(F)C(=O)[C@H](C)[C@@H](O[C@@H]2O[C@H](C)C[C@H](N(C)C)[C@H]2O)[C@](C)(OC)C[C@@H](C)C(=O)[C@H](C)[C@H]2N(CCCCn3cc(-c4cccc(N)c4)nn3)C(=O)O[C@]12C", "Stability": "104%"}
{"COMPOUND STRING": "CO[C@@H]1[C@@H](OC(=O)c2ccc(C)[nH]2)[C@@H](O)[C@H](Oc2ccc3c(O)c(NC(=O)c4ccc(C)c(C)c4)c(=O)oc3c2C)OC1(C)C", "Stability": "80.8%"}
{"COMPOUND STRING": "C#CCONC(=O)O[C@H]1[C@@H](O)[C@H](Oc2ccc3c(O)c(NC(=O)c4ccc(O)c(CC=C(C)C)c4)c(=O)oc3c2C)OC(C)(C)[C@@H]1OC", "Stability": "47.2%"}

Would you mind listing Stability for each of the following compounds?
1. CO[C@@H]1[C@@H](OC(=O)c2ccc(C)[nH]2)[C@@H](O)[C@H](Oc2ccc3c(O)c(NC(=O)c4ccnc(C)c4)c(=O)oc3c2C)OC1(C)C
2. O=c1ccc2ncc(=O)n3c2n1C[C@H]3CN1CCC(NCc2cc3c(cn2)OCCC3)CC1
3. CO[C@@H]1[C@@H](OC(=O)c2ccc(C)[nH]2)[C@@H](O)[C@H](Oc2ccc3c(O)c(NC(=O)c4cn(C)cn4)c(=O)oc3c2C)OC1(C)C
4. C=Cc1cc(C(=O)Nc2c(O)c3ccc(O[C@@H]4OC(C)(C)[C@H](OC)[C@@H](OC(=O)c5ccc(C)[nH]5)[C@H]4O)c(C)c3oc2=O)ccc1N

(A)
1. 120%
2. 107%
3. 119%
4. 104%

For every record below, what is its Stability?
1. CO[C@@H]1[C@@H](OC(=O)c2ccc(C)[nH]2)[C@@H](O)[C@H](Oc2ccc3c(O)c(NC(=O)c4ccc(O)c(CC=C(C)C)c4)c(=O)oc3c2C)OC1(C)C
2. C[C@@H]1CN2c3c(cc4c(N5C(=O)OC[C@@H]5C)noc4c3F)CC3(C(=O)NC(=O)NC3=O)[C@H]2[C@H](C)O1

(A)
["92.7%", "94.3%"]

---

System: Staphylococcus aureus
Experiment: Antibacterial activity against Staphylococcus aureus assessed inhibition of bacterial growth
Assay type: functional
Quick rule for you: MIC90 under 0.2 µg/mL gets fulfilled, anything else gets not fulfilled.

{"COMPOUND STRING": "CO[C@@H]1[C@@H](OC(=O)c2ccc(C)[nH]2)[C@@H](O)[C@H](Oc2ccc3c(O)c(NC(=O)c4cn(C)c(CCC(C)C)n4)c(=O)oc3c2C)OC1(C)C", "STUDY SYSTEM": "Staphylococcus aureus", "CLASS": "not fulfilled"}
{"COMPOUND STRING": "CO[C@@H]1[C@@H](OC(=O)c2ccc(C)[nH]2)[C@@H](O)[C@H](Oc2ccc3c(O)c(NC(=O)c4cscn4)c(=O)oc3c2C)OC1(C)C", "STUDY SYSTEM": "Staphylococcus aureus", "CLASS": "not fulfilled"}
{"COMPOUND STRING": "CO[C@@H]1[C@@H](OC(=O)c2ccc(C)[nH]2)[C@@H](O)[C@H](Oc2ccc3c(O)c(NC(=O)c4ccnc(Oc5cccnc5)c4)c(=O)oc3c2C)OC1(C)C", "STUDY SYSTEM": "Staphylococcus aureus", "CLASS": "not fulfilled"}
{"COMPOUND STRING": "CCCn1cnc(C(=O)Nc2c(O)c3ccc(O[C@@H]4OC(C)(C)[C@H](OC)[C@@H](OC(=O)c5ccc(C)[nH]5)[C@H]4O)c(C)c3oc2=O)c1", "STUDY SYSTEM": "Staphylococcus aureus", "CLASS": "not fulfilled"}
{"COMPOUND STRING": "CO[C@@H]1[C@H](NC(=O)c2ccc(C)[nH]2)[C@@H](O)[C@H](Oc2ccc3c(O)c(NC(=O)c4ccc(O)c(CC=C(C)C)c4)c(=O)oc3c2C)OC1(C)C", "STUDY SYSTEM": "Staphylococcus aureus", "CLASS": "not fulfilled"}
{"COMPOUND STRING": "C=CCONC(=O)O[C@H]1[C@@H](O)[C@H](Oc2ccc3c(O)c(NC(=O)c4ccc(O)c(CC=C(C)C)c4)c(=O)oc3c2C)OC(C)(C)[C@@H]1OC", "STUDY SYSTEM": "Staphylococcus aureus", "CLASS": "not fulfilled"}
{"COMPOUND STRING": "CO[C@@H]1[C@@H](OC(=O)c2ccc(C)[nH]2)[C@@H](O)[C@H](Oc2ccc3c(O)c(NC(=O)c4cn(Cc5ccccn5)cn4)c(=O)oc3c2C)OC1(C)C", "STUDY SYSTEM": "Staphylococcus aureus", "CLASS": "not fulfilled"}
{"COMPOUND STRING": "CO[C@@H]1[C@@H](OC(=O)NOC(C)(C)C)[C@@H](O)[C@H](Oc2ccc3c(O)c(NC(=O)c4ccc(O)c(CC=C(C)C)c4)c(=O)oc3c2C)OC1(C)C", "STUDY SYSTEM": "Staphylococcus aureus", "CLASS": "not fulfilled"}

(Q) Quick check: does CO[C@@H]1[C@@H](OC(=O)c2cc(Cl)c(C)[nH]2)[C@@H](O)[C@H](Oc2ccc3c(O)c(NC(=O)c4ccc(O)c(CC=C(C)C)c4)c(=O)oc3c2C)OC1(C)C have MIC90 under 0.2 µg/mL?
(A) fulfilled

(Q) Lab log: compare recorded MIC90 with 0.2 µg/mL; is it strictly lower for CO[C@@H]1[C@@H](OC(=O)c2ccc(C)[nH]2)[C@@H](O)[C@H](Oc2ccc3c(O)c(NC(=O)c4ccc(O)c(CC=C(C)C)c4)c(=O)oc3c2C)OC1(C)C ?
(A) fulfilled

(Q) Item CO[C@@H]1[C@@H](NC(=O)c2ccc(C)[nH]2)[C@@H](O)[C@H](Oc2ccc3c(O)c(NC(=O)c4ccc(O)c(CC=C(C)C)c4)c(=O)oc3c2C)OC1(C)C : MIC90 beneath 0.2 µg/mL, strictly?
(A) not fulfilled

(Q) Please indicate whether the reported MIC90 of C=Cc1cc(C(=O)Nc2c(O)c3ccc(O[C@@H]4OC(C)(C)[C@H](OC)[C@@H](OC(=O)c5ccc(C)[nH]5)[C@H]4O)c(C)c3oc2=O)ccn1 is strictly below 0.2 µg/mL.
(A) not fulfilled
